Below, each of the molecules is paired with its reported melting point value.

Consider the reported melting point for these molecules:
Cn1c(CNC[C@H]2CCCO2)cc2cc(NC(=O)c3ccc(OCC4CC4)cc3)ccc21
138 to 139 °C
CC(C)Nc1cccnc1N1CCN(C(=O)c2ccc(C(=O)N(CCO)Cc3ccccc3)cc2)CC1
99 to 101 °C
CC(=O)OC1CCC2C3CCC4CC(O[Si](C)(C)C(C)(C)C)CCC4C3CCC12C (configuration not stated)
89 to 90 °C

Would you kindly share the measured melting point for COCC(=O)c1cnc2c(OC)cccc2c1Nc1ccccc1C ?
122 to 123 °C

Would you kindly share the measured melting point for COc1ccc2c(c1)N(C(C)=O)CCO2 ?
76 to 77 °C

---

MEASURED QUANTITY: melting point

Consider the reported melting point for these compounds:
CCOC(=O)c1ccc(-c2nc(COc3ccc(COc4nn(-c5ccccc5)cc4C=O)cc3OC)c(C)o2)s1
156 to 157 °C
COC(c1ccc(Cl)cc1)(c1cc2c3c(c1)c(-c1cccc(Cl)c1)cc(=O)n3CCC2)c1nncn1C (stereo not given)
132 °C

Would you kindly share the measured melting point for CC(=O)c1c(C)sc2ccnn12 ?
130 to 131 °C

Would you kindly share the measured melting point for COC(=O)C(Cl)Cc1ccc2ccc(Oc3c(Cl)cc(C(F)(F)F)cc3Cl)cc2c1 (stereo not given) ?
136 °C

Would you kindly share the measured melting point for O=C1C(=O)N(CCCN2CCN(C3c4ccccc4CCc4ccccc43)CC2)c2ccccc21 ?
159 to 162 °C

---

MEASURED QUANTITY: melting point

Consider the reported melting point for these molecules:
O=C(O)Cc1ccc(CCNS(=O)(=O)c2ccc(F)cc2)cc1
192 to 193 °C
O=[N+]([O-])c1cccc(O)c1CO
97 to 99 °C
COC1OC(COCc2ccccc2)C(OCc2ccccc2)C(NC(C)=O)C1OCc1ccccc1 (stereo not drawn)
147 to 151 °C

Would you kindly share the measured melting point for O=P(O)(O)CCCCCCCCCCCO ?
109 to 112 °C

Would you kindly share the measured melting point for Cc1oc(-c2ccccc2)nc1CCOc1ccc(NC2SC(=O)NC2=O)cc1 (stereo not drawn) ?
179 to 180 °C

Would you kindly share the measured melting point for CC(=O)NCC(=O)c1cccc(Cl)c1Cl ?
107 to 109 °C

Would you kindly share the measured melting point for COc1ccc(CC2SC(=O)NC2=O)c2ccc(=O)n(C)c12 (stereo not drawn) ?
254 to 255 °C

Would you kindly share the measured melting point for CC(C)(CC(F)(F)F)NC(=N)NC#N ?
153 °C

Would you kindly share the measured melting point for Cn1c(CCCOc2ccc(CC3SC(=O)N(C(c4ccccc4)(c4ccccc4)c4ccccc4)C3=O)cc2)nc2cccnc21 (stereo not drawn) ?
76 to 81 °C

Would you kindly share the measured melting point for COc1ccc(C=Cc2nnc(C(Br)(Br)Br)o2)cc1 ?
160 to 161 °C

Would you kindly share the measured melting point for O=C1NC(=O)C(c2ccccc2Cl)C1SC1=NCCS1 (stereo not drawn) ?
195 to 200 °C

Would you kindly share the measured melting point for O=C(O)CS(=O)c1cccc(-c2nc(=O)c3ccccc3s2)n1 (stereo not drawn) ?
186 to 188 °C

Would you kindly share the measured melting point for NC1=NC(=O)N(c2ccccc2)C1 ?
277 to 279 °C

Would you kindly share the measured melting point for CCc1cc(Oc2ccc(S(C)(=O)=O)nc2)cc2cc(C3=NCC(CC(=O)O)S3)[nH]c12 (stereo not drawn) ?
230 to 232 °C

Would you kindly share the measured melting point for CNC(=O)C=C1CC2(CCCC2)c2ccccc21 ?
178 °C

Would you kindly share the measured melting point for COc1ccc(-c2cc3c(n2CCN(C)C)CCCC3)cc1 ?
81 to 82 °C

Would you kindly share the measured melting point for OC(Cn1cncn1)(c1ccc(F)cc1F)C1(SC(F)(F)F)CC1 (stereo not drawn) ?
103 °C

Would you kindly share the measured melting point for Cc1nnccc1-c1c(-c2ccccc2)nn2ccccc12 ?
209 to 214 °C

Would you kindly share the measured melting point for CSc1nc(SC)c(NC(=O)CCCCCSc2nc3ccccc3o2)c(SC)n1 ?
149 to 153 °C

Would you kindly share the measured melting point for CCC(C)OC(=O)CNC(=O)[C@@H](Cc1ccccc1)CN1CC[C@@](C)(c2cccc(O)c2)[C@@H](C)C1 (stereo partly drawn) ?
94 °C

Would you kindly share the measured melting point for O=c1[nH]c2cc(Cl)c(Cl)cc2nc1Cl ?
> 300 °C

Would you kindly share the measured melting point for Cc1oc(-c2ccccc2)nc1CCOc1ccc(CCl)cc1 ?
88 to 90 °C

Would you kindly share the measured melting point for Cc1ccc(SC(C#N)c2cccc(C(=O)c3ccccc3)c2)cc1 (stereo not drawn) ?
79 to 79.5 °C

Would you kindly share the measured melting point for N#Cc1ccc(N2C(=O)C3=CCCN3C2=O)c2ccccc12 ?
230 to 232 °C

Would you kindly share the measured melting point for CC(=O)C=Cc1ccc(Cl)c(Cl)c1 ?
53 to 55 °C
